Data credit: ChEMBL document CHEMBL1138004

# Study System: C-C chemokine receptor type 2 (Homo sapiens, UniProt P41597)
# Sequence (P41597 whole entry): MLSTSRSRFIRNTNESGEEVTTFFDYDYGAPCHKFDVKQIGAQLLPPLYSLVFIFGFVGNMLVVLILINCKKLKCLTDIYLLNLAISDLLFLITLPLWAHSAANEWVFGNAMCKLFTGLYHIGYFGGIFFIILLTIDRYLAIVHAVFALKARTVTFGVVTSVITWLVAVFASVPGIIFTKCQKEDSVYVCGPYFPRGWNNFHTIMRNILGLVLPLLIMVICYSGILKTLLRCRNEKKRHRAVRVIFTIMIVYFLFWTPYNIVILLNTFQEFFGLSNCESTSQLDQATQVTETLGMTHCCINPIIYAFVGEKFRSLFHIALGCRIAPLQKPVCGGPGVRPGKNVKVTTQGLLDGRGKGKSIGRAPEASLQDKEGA
# Method: Concentration required to inhibit [125I]MCP-1 binding to Chemokine receptor 2B
# binning rule on IC50: lower segment = under 7 µM, middle segment = from 7 µM up to 40 µM, upper segment = 40 µM and over

1) Cc1csc(C(=O)NNC(=O)CN2CCC(NCCC(c3ccccc3)c3ccccc3)C2)c1 (stereo unspecified) ... middle segment
2) O=C(CNC(=O)c1ccccc1)NCC1CCN(Cc2ccc(Cl)cc2)CC1 ... middle segment
3) Cc1csc(C(=O)NNC(=O)CN2CCC(NCc3ccc(Cl)cc3)C2)c1 (stereo unspecified) ... middle segment
4) O=C(CNC(=O)c1cccc(C(F)(F)F)c1)NCC1CCCN1Cc1ccc(Cl)cc1 (stereo unspecified) ... lower segment
5) O=C(CCCC(=O)c1ccccc1)NC1CCCN(Cc2ccc(Cl)cc2)C1 (stereo unspecified) ... upper segment

Switching to the query record.
Which class does O=C(CCCC(=O)c1ccccc1)NC1CCN(Cc2ccc(Cl)cc2)C1 (stereo unspecified) fall in?
middle segment
